Below, each of the compounds is paired with its reported IC50 value.
molecular target: p110α/p85α (Homo sapiens (Human)); experiment: PI 3-Kinase (human) HTRF assay, p110α/p85α; type: biochemical; details: in vitro; read-out: PI3K α IC50
Sequence (P42336 whole entry): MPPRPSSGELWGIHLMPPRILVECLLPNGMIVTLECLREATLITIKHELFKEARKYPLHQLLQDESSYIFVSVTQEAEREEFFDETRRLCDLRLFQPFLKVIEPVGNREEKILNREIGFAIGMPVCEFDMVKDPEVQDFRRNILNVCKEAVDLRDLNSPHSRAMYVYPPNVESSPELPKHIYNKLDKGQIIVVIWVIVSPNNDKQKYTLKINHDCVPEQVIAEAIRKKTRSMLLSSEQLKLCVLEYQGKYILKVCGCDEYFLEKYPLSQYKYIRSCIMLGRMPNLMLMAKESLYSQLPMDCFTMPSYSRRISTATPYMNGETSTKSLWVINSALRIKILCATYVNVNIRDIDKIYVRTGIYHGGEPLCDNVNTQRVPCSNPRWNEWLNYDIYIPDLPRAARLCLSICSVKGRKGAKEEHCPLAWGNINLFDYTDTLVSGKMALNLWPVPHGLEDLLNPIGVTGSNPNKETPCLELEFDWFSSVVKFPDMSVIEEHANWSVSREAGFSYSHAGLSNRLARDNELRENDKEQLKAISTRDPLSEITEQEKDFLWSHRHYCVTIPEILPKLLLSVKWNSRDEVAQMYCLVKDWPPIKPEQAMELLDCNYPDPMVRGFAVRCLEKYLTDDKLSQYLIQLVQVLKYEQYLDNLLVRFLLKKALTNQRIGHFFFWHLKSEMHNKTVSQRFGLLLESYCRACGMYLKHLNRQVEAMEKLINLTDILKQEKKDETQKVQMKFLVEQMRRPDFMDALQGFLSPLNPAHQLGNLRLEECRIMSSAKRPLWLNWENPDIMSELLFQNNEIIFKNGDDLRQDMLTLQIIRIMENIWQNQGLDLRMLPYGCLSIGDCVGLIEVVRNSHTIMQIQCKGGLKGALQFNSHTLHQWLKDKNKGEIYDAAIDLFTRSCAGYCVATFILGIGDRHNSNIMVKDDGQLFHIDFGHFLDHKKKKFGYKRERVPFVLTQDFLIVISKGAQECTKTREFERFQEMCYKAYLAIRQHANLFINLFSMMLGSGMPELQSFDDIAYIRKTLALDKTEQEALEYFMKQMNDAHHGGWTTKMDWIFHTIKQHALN
Sequence (P27986 whole entry partner): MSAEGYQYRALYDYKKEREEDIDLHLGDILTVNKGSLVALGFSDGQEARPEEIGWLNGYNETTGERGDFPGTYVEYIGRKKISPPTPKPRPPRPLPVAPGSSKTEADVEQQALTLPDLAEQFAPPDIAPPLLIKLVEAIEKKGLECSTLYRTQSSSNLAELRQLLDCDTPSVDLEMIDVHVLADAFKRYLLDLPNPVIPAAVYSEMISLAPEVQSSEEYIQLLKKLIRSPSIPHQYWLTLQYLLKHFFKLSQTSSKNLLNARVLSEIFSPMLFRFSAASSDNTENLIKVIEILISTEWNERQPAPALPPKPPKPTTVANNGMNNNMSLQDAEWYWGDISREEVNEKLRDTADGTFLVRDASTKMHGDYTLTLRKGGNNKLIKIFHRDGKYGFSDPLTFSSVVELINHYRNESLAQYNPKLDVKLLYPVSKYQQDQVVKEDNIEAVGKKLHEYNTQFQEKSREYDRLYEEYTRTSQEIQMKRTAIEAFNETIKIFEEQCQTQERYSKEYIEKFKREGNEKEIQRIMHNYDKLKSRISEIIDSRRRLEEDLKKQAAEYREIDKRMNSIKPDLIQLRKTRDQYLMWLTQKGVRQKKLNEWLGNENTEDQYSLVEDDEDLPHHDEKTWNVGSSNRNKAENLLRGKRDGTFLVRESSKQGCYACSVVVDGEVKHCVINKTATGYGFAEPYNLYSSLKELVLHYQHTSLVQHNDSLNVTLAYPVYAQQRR

Query: What IC50 appears in the records for this compound with p110α/p85α (Homo sapiens (Human))? Nc1nc2cc(-c3ccn4ncc(-c5ccncc5)c4c3)ccc2o1
Response: < 100 nM

Query: Likewise for CCN(CC)CCNc1cnc2ccc(-c3ccc4oc(N)nc4c3)cc2n1 ?
Response: < 1000 nM

Query: # repeat for Nc1nc2cc(-c3ccc4ncc(N5CC(N6CCOCC6)C5)nc4c3)c(F)cc2o1
Response: < 100 nM

Query: And then C[C@H]1CN(c2cnc3ccc(-c4ccc5oc(N)nc5c4)cc3n2)CCN1C , what is it?
Response: < 1000 nM

Query: Same lookup for Nc1nc2cc(-c3ccc4ncc(N5CC(C(=O)NC6CC6)C5)nc4c3)ccc2o1 , please.
Response: < 100 nM

Query: Queued: NC(=O)[C@H]1CCCN1C(=O)C1CN(c2cnc3ccc(-c4ccc5oc(N)nc5c4)cc3n2)C1
Response: < 100 nM
